test: Long-term stability in feeds at room temperature (25° C.±2° C., RH 60%±10%; HPLC); type: physicochemical; conditions: 100 ppm in INSIGHTER's broiler feed; Day 60
Measurement label: Residual amount of active ingredient (%)

{"Compound": "CC(=O)OC1=C(CCC(C)C)C(=O)C(CCC(C)C)(CCC(C)C)C(O)=C1C(=O)C(C)C [hexahydro-colupulone mono-acetate, Hexahydro-Colupulone Mono-Acetate]", "Measured": 71.97}
{"Compound": "CCCC(=O)OC1=C(CCC(C)C)C(=O)C(CCC(C)C)(CCC(C)C)C(O)=C1C(=O)C(C)C [hexahydro-colupulone mono-butyrate]", "Measured": 98.11}
{"Compound": "CCC(=O)OC1=C(CCC(C)C)C(=O)C(CCC(C)C)(CCC(C)C)C(O)=C1C(=O)C(C)C [hexahydro-colupulone mono-propionate]", "Measured": 99.72}
{"Compound": "CCCCCCCCCCCC(=O)OC1=C(CCC(C)C)C(=O)C(CCC(C)C)(CCC(C)C)C(O)=C1C(=O)C(C)C [hexahydro-colupulone mono-laurate]", "Measured": 98.68}
